assay: NCI Yeast Anticancer Drug Screen. Data for the bub3 strain (AID 167); conditions: S. cerevisiae bub3 mutant strain, at 50.0 µM
This is part of a sample that, as a whole, favours compounds with a hit. Of some 79,000 tested, about 15% had one in any assay. Activity calls are given as the source filed them. Cut-off read from the data, not from the text of the source: active = growth inhibition above about 70%; inactive = the rest.
Your reply should match one of these outcome classes. T for active, F for inactive

Some solved cases for reference:
Compound	Classification
C[n+]1cccc(C2CCC[N+]2(C)C)c1 (stereo not drawn)	F
COC1=CC(=O)OC(CCc2ccccc2)C1 (stereo not drawn)	F
CC(C(O)c1cccnc1)[N+](=O)[O-] (stereo not drawn)	F
COC(=O)c1cccc(S(=O)(=O)F)c1	F
C/C=C/C1(CCCC)C(=O)NC(=O)NC1=O	F
CCCC(=O)O.CCCC(=O)O.CCCC(=O)O.CCCC(=O)O.[Rh].[Rh]	F
CCOP(=O)(OCC)Oc1cc(C)c(SC)c(C)c1	F
CCCCC(CC)C(O)P(=O)(OCC)OCC (stereo not drawn)	F

Which outcome did this test record for the compound CCN1C(=O)C(=C/C=C/c2ccc(OC)cc2)C(=O)N(CC)C1=S ?
F

Which outcome did this test record for the compound COc1cccc(C2N(Cc3ccc(N(CCCl)CCCl)cc3C)CCCN2Cc2ccc(N(CCCl)CCCl)cc2C)c1O ?
F

----------
assay: NCI Yeast Anticancer Drug Screen. Data for the rad50 strain (AID 155);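 note: 0% = growth of vehicle-only cultures of the same strain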; settings: S. cerevisiae rad50 strain growth inhibition; at 5.0 µM (retest, dose inferred, filed as 0.5); hits give high values
About 79,000 compounds went through this panel and 15% of them were active in at least one assay; those are over-represented in the sample as a whole. Active and inactive are the calls of the source. No stated cut-off is given here; in the data, active means growth inhibition above about 70%; inactive means the rest.
Readout Name: growth inhibition

// below: answered compounds
Compound	growth inhibition
CC(C)(C)S.[Hg]	68% (inactive)
CC1(OO)CCC2CC1C2(C)C (centres undefined)	9% (inactive)
[N-]=[N+]=NC1(N=[N+]=[N-])C(=O)NN=C(c2ccccc2)C1=O (centres undefined)	-12% (inactive)
O=[N+]([O-])c1ccc(N(CCO)CCO)c2c1no[n+]2[O-]	39% (inactive)
CC(=N\O)/C(C)=N/O.CC(=N\O)/C(C)=N/O.CC(=N\O)/C(C)=N/O.CC(=N\O)/C(C)=N/O.[CH3-].[CH3-].[Co].[Co]	15% (inactive)
N#C[S-].[La+3].c1ccc(-c2ccccn2)nc1.c1ccc(-c2ccccn2)nc1.c1ccc(-c2ccccn2)nc1	61% (inactive)
COC(=O)C1ON(c2ccccc2)C2c3ccccc3-c3ccccc3C12 (centres undefined)	31% (inactive)
COc1cc(OC)c(/C=C(\C)[N+](=O)[O-])cc1Br	1% (inactive)

Field: next compound
Item CC[C@@H](C)[C@@H]1NC(=O)C(NC(=O)C(CC(C)C)N(C)C(=O)C2CCCN2C(=O)C(C)O)C(C)OC(=O)C(Cc2ccc(OC)cc2)N(C)C(=O)C2CCCN2C(=O)C(CC(C)C)NC(=O)C(C)C(=O)C(C(C)C)OC(=O)C[C@H]1O (some centres undefined) has what recorded growth inhibition?
51% (inactive)

----------
experiment: NCI Yeast Anticancer Drug Screen. Data for the cln2 rad14 strain (AID 165);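 note: 0% = growth equal to vehicle treated cultures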; conditions: S. cerevisiae cln2 rad14 strain, at 5.0 µM (retest, dose inferred, filed as 0.5)
About 79,000 compounds went through this panel and 15% of them were active in at least one assay; those are over-represented in the sample as a whole. Activity calls are given as the source filed them. No stated cut-off is given here; in the data, active means growth inhibition above about 70%; inactive means the rest.
Your reply should match one of these outcome classes. active, inactive

Compound	Classification
CCCCCCCCCCCCCCCC[N+](C)(C)CCOS(C)(=O)=O	active

Which outcome did this test record for the compound O=[N+]([O-])/C=C/c1ccc([N+](=O)[O-])cc1 ?
inactive

Which outcome did this test record for the compound C/C=C1/C(=O)O[C@]23C=C[C@@H]4C(C(=O)OC)=CO[C@H](O[C@@H]12)[C@@H]43 ?
inactive

Which outcome did this test record for the compound COC12C(COC(N)=O)C3=C(C(=O)C(C)=C(N)C3=O)N1CC1C2N1C (stereo not given) ?
inactive

Which outcome did this test record for the compound O=C(c1ccccc1)c1cc(CN(CCCl)CCCl)c(O)cc1O ?
inactive
